# SYSTEM: CCR2 (Homo sapiens, UniProt P41597)
# Construct: Membranes were prepared from THP-1 cells; endogenous in cells
# Sequence (P41597 1-360 isoform P41597-2): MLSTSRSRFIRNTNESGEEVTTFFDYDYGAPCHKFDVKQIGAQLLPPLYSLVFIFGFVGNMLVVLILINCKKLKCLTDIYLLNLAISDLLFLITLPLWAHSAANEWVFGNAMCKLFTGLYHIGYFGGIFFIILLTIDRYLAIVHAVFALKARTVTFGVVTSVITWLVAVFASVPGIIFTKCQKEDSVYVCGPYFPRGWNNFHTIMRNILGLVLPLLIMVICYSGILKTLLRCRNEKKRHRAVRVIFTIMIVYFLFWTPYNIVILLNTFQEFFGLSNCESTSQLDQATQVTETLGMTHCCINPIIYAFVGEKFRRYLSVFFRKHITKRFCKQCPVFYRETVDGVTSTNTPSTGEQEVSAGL
# EXPERIMENTAL_PROTOCOL: CCR2 receptor membrane binding assay ([125I]MCP-1, THP-1 cell membranes, SPA beads)
# STATED_CONDITIONS: dissociation constant hKi; [125I]MCP-1 binding to THP-1 membranes
pKi: −log10 of the molar value.
PROPERTY_MEASURED: pKi

> print(dat)
                                    compound  assay.result
 1  Cc1c(NCc2ccc(Cl)c(Cl)c2)ncnc1C(=O)N1CCC(N2CC[C@H](NS(C)(=O)=O)C2)CC1 [Example 258]          7.19
 2  Cc1c(NCc2ccc(C(C)(C)C)cc2)ncnc1C(=O)N1CCC(NC2CCOc3cccnc32)CC1 (stereo not shown) [Example 228gi]          5.96
 3  Cc1nc(NCc2ccc(Cl)c(F)c2)c(C)c(C(=O)N2CCC(N3CCC(N(C)S(C)(=O)=O)CC3)CC2)n1 [Example 80]          7.28
 4  CCC1CCC(CNc2ncnc(C(=O)N3CCC(N4CCC(N(C)S(C)(=O)=O)CC4)CC3)c2C)CC1 (stereo not shown) [Example 159k]          7.66
 5  Cc1c(NCC2CCCC(C)C2)ncnc1C(=O)N1CCC(N2CCC(N(C)S(C)(=O)=O)CC2)CC1 (stereo not shown) [Example 159g]          7.82
 6  Cc1c(NCC2CCCCC2)ncnc1C(=O)N1CCC(N2CCC(O)CC2)CC1 [Example 108]          6.20
 7  Cc1c(NCc2ccc(-c3ccccc3)o2)ncnc1C(=O)N1CCC(N2CCC(N(C)S(C)(=O)=O)CC2)CC1 [Example 159u]          7.54
 8  Cc1c(NCc2ccc(Cl)c(F)c2)ncnc1C(=O)N1CCC(N2CCCCC2)CC1 [Example 134]          6.40
 9  Cc1c(NCc2ccc(C(C)(C)C)cc2)ncnc1C(=O)N1CCC(N2CCC3(CC2)CNC(=O)O3)CC1 [Example 228gj]          7.26
10  Cc1c(NCc2ccc(C(C)(C)C)cc2)ncnc1C(=O)N1CCCN(C(C)C)CC1 [Example 287]          5.59
11  Cc1c(NCc2cccc(OC(F)(F)F)c2)ncnc1C(=O)N1CCC(N2CCC(O)CC2)CC1 [Example 8]          5.99
12  Cc1c(NCCCc2ccccc2)ncnc1C(=O)N1CCC(N2CCC(O)CC2)CC1 [Example 17]          6.52
13  Cc1ccc(CNc2ncnc(C(=O)N3CCC(N4CCCCC4)CC3)c2C)cc1F [Example 137]          6.20
14  CO[C@@H]1COCC[C@@H]1NC1CCN(C(=O)c2nc(C)nc(NC[C@H]3C[C@H](c4ccccc4)C3)c2C)CC1 [Example 275de]          7.80
15  CCS(=O)(=O)N(C)C1CCN(C2CCN(C(=O)c3ncnc(NCC4CCCN(c5ccccc5)C4)c3C)CC2)CC1 (stereo not shown) [Example 38]          7.16
16  Cc1c(NCc2ccc(C(C)(C)C)cc2)ncnc1C(=O)N1CCC(NCC2CCCCO2)CC1 (stereo not shown) [Example 228gh]          5.39

====

# SYSTEM: CCR2 (Homo sapiens, UniProt P41597)
# Construct: Membranes were prepared from THP-1 cells; endogenous in cells; host or cells: THP-1 cells (membrane preparation)
# EXPERIMENTAL_PROTOCOL: CCR2 receptor membrane binding assay ([125I]MCP-1, THP-1 cell membranes, SPA beads)
# STATED_CONDITIONS: @ 10 μM test compound; THP-1 membranes; read-out: CCR2 % ctrl @ 10 μM
# Experimental: The above exemplary substances have been tested for binding to CCR2 using a binding assay as outlined herein below: THP-1 cells (human acute monocytic leukaemia cells) were cultured under standardized conditions at 37° C. and 5% CO2 in a humidified incubator. […] Perkin Elmer NEX 332 Jod 125 MCP-1, Stock: 2200 Ci/mmol solved in 2000 μl assay buffer, stored at −20° C. […] Bound radioactivity was determined by scintillation counter after 8 h. […]
Classify by remaining activity at 10 µM. Ranges: lower: < 8%; middle: ≥ 8% and < 30%; upper: ≥ 30%

> print(dat)
                                    compound                               system  class.label
 1  Cc1c(NCc2ccc(Cl)c(Cl)c2)ncnc1C(=O)N1CCC(N2CCC(N3CCCC3=O)CC2)CC1  CCR2 (Homo sapiens, UniProt P41597)        upper
 2  Cc1c(NCc2ccc(OC(F)(F)F)cc2)ncnc1C(=O)N1CCC(N2CCC(O)CC2)CC1  CCR2 (Homo sapiens, UniProt P41597)       middle
 3  COC1CCN(C2CCN(C(=O)c3ncnc(NCC4CCCN(c5ccccc5)C4)c3C)CC2)CC1 (stereo not drawn)  CCR2 (Homo sapiens, UniProt P41597)       middle
 4  Cc1c(NCc2ccc(C(C)(C)C)cc2)ncnc1C(=O)N1CCCN(C(C)C)CC1  CCR2 (Homo sapiens, UniProt P41597)        upper
 5  Cc1c(NC[C@@H]2CCC[C@H](c3ccccc3)C2)ncnc1C(=O)N1CCC(N2CCC(O)CC2)CC1  CCR2 (Homo sapiens, UniProt P41597)       middle
 6  COc1ccc(CNc2ncnc(C(=O)N3CCC(N4CCC(N(C)S(C)(=O)=O)CC4)CC3)c2C)cc1  CCR2 (Homo sapiens, UniProt P41597)       middle
 7  Cc1nc(NCc2ccc(Cl)c(F)c2)c(C)c(C(=O)N2CCC(N3CCC(N(C)S(C)(=O)=O)CC3)CC2)n1  CCR2 (Homo sapiens, UniProt P41597)        lower
 8  Cc1nc(NCc2ccc(Cl)c(Cl)c2)c(C)c(C(=O)N2CCC(N3CCC(N(C)S(C)(=O)=O)CC3)CC2)n1  CCR2 (Homo sapiens, UniProt P41597)        lower
 9  COC1COCCC1N(C)C1CCN(C(=O)c2ncnc(NCC3CCC[C@@H](c4ccccc4)C3)c2C)CC1 (stereo partly drawn) [Example 228h]  CCR2 (Homo sapiens, UniProt P41597)        lower
10  Cc1c(NCC2CCC(c3ccccc3)CC2)ncnc1C(=O)N1CCC(N2CCC(O)CC2)CC1 (stereo not drawn)  CCR2 (Homo sapiens, UniProt P41597)       middle
11  Cc1cc(CNc2ncnc(C(=O)N3CCC(N4CCC(N(C)S(C)(=O)=O)CC4)CC3)c2C)ccc1F  CCR2 (Homo sapiens, UniProt P41597)       middle
12  Cc1c(NCc2ccc(C(C)(C)C)cc2)ncnc1C(=O)N1CCC(N2CCC(S(=O)(=O)N(C)C)CC2)CC1  CCR2 (Homo sapiens, UniProt P41597)       middle
13  CNC(=O)C1CCN(C2CCN(C(=O)c3ncnc(NCCc4ccc(Cl)c(Cl)c4)c3C)CC2)CC1  CCR2 (Homo sapiens, UniProt P41597)        lower
14  Cc1c(N[C@@H]2CCc3ccccc3C2)ncnc1C(=O)N1CCC(N2CCC(O)CC2)CC1  CCR2 (Homo sapiens, UniProt P41597)        upper
15  Cc1c(NCc2ccc(C(C)(C)C)cc2)ncnc1C(=O)N1CCC(N2CCC(Oc3ccccn3)CC2)CC1  CCR2 (Homo sapiens, UniProt P41597)        lower
16  Cc1c(NCCc2ccc(Cl)c(Cl)c2)ncnc1C(=O)N1CCC(N2CCC[C@H](C(=O)O)C2)CC1  CCR2 (Homo sapiens, UniProt P41597)        upper
17  O=C(c1ncnc(NCc2cccc(-c3ccccc3)c2)c1Br)N1CCC(N2CCOCC2)CC1  CCR2 (Homo sapiens, UniProt P41597)        upper
18  Cc1nc(NCc2ccc(C(C)(C)C)cc2)c(C)c(C(=O)N2CCC(N3CC[C@@H](C(N)=O)C3)CC2)n1  CCR2 (Homo sapiens, UniProt P41597)       middle
19  CCN(C1CCN(C2CCN(C(=O)c3ncnc(NCc4ccc(C(C)(C)C)cc4)c3C)CC2)CC1)S(C)(=O)=O  CCR2 (Homo sapiens, UniProt P41597)        lower
20  Cc1c(NCc2ccc(C(F)(F)F)c(Cl)c2)ncnc1C(=O)N1CCC(N2CCC(N(C)S(C)(=O)=O)CC2)CC1  CCR2 (Homo sapiens, UniProt P41597)        lower
21  Cc1c(NC2CCC(c3ccccc3)CC2)ncnc1C(=O)N1CCC(N2CCC(O)CC2)CC1 (stereo not drawn)  CCR2 (Homo sapiens, UniProt P41597)       middle
22  CO[C@@H]1CN(C2CCN(C(=O)c3ncnc(NCc4ccc(Cl)c(Cl)c4)c3C)CC2)CC[C@H]1NS(C)(=O)=O  CCR2 (Homo sapiens, UniProt P41597)       middle
23  Cc1nc(NCC2Cc3ccccc3C2)c(C)c(C(=O)N2CCC(N3CCC(N(C)S(C)(=O)=O)CC3)CC2)n1  CCR2 (Homo sapiens, UniProt P41597)        lower
24  Cc1c(NCc2ccc(Cl)c(F)c2)ncnc1C(=O)N1CCC(N2CCOCC2)CC1  CCR2 (Homo sapiens, UniProt P41597)       middle
25  CCOC(=O)N1CCC(NC2CCN(C(=O)c3ncnc(NCc4ccc(C(C)(C)C)cc4)c3C)CC2)C(OC)C1 (stereo not drawn) [Example 228e]  CCR2 (Homo sapiens, UniProt P41597)        upper
26  Cc1c(NCCc2ccc(Cl)c(Cl)c2)ncnc1C(=O)N1CCC(N2CCN(S(C)(=O)=O)CC2)CC1  CCR2 (Homo sapiens, UniProt P41597)        upper
